tested on: P388 leukemia ip, CD2F1 mice, survival T/C; assay: NCI In Vivo Anticancer Drug Screen. Data for tumor model P388 Leukemia (intraperitoneal) in CD2F1 (CDF1) mice; conditions: endpoint: median survival time; dose: 50.0 mg/kg/injection; schedule: Q01DX009 (ip); vehicle: distilled water + Tween-80; higher = longer survival
Toxic doses and inconclusive results are not listed.
reportedEndpoint: T/C

• Cc1ccc(S(=O)(=O)NN=C(C(=O)O)C(=O)O)cc1 = 100 % of control
• Cc1ccc(NC(=O)Nc2nccs2)cc1 = 90 % of control
• CCOc1cc2cc(CCO)c(C)cc2cn1 = 94 % of control
• CCOC(=O)C1=C(C)N(C)C(C)=C(C(=O)OCC)C1c1ccc(Cl)cc1 = 97 % of control

###

test system: P388 leukemia ip, CD2F1 mice, survival T/C; assay: NCI In Vivo Anticancer Drug Screen. Data for tumor model P388 Leukemia (intraperitoneal) in CD2F1 (CDF1) mice; conditions: endpoint: median survival time; dose: 100.0 mg/kg/injection; schedule: Q01DX005 (ip); vehicle: saline with Tween-80; higher = longer survival
Inconclusive results and toxic doses are left out.
Listing of recorded T/C by entry.
reportedEndpoint: T/C

- COc1ccc(S(=O)(=O)N/N=C\c2cc([N+](=O)[O-])cc([N+](=O)[O-])c2O)cc1OC: 100 % of control
- CCOC(=O)C1C(=O)CN(C(=O)OC)C1C(=O)OCC (stereo not given): 95 % of control
- O=C(CNC(=O)n1ccnc1)N/N=C/c1ccco1: 92 % of control
- Cn1c2ccccc2c(=S)c2cc(NC(=O)CCCCC(=O)Nc3ccc4c(c3)c(=S)c3ccccc3n4C)ccc21: 98 % of control
- CN(/N=C/c1ccccc1)C(N)=Nc1ccccc1: 107 % of control
- Cc1ccc2c(c1)C1(SCCC(=O)N1c1ccc(Cl)cc1)C(=O)N2 (stereo not given): 95 % of control
- O=C1C=CC2(C=C1)N=C(c1ccccc1)C=C2c1ccccc1: 97 % of control
- O=C(CC(c1cccnc1)C(C(=O)c1ccc(Cl)cc1)C(CC(=O)c1ccc(Cl)cc1)c1cccnc1)c1ccc(Cl)cc1 (stereo not given): 90 % of control
- Cc1c(COC(=O)NC(C)C)c(COC(=O)NC(C)C)c2n1CS(=O)(=O)C2: 218 % of control
- C/C=C/C1CC2CC(CC(O)CC)CN2O1 (stereo not given): 110 % of control

###

test system: P388 leukemia ip, CD2F1 mice, survival T/C; assay: NCI In Vivo Anticancer Drug Screen. Data for tumor model P388 Leukemia (intraperitoneal) in CD2F1 (CDF1) mice; settings: endpoint: median survival time; dose: 200.0 mg/kg/injection; schedule: Q01DX001 (ip); vehicle: Klucel (hydroxypropylcellulose) (HPC); higher = longer survival
Inconclusive results and toxic doses are left out.
reportedEndpoint: T/C

- CCOC(=O)C1=C(N)CCCC1: 110 % of control
- C/C(=N\Nc1ccc([N+](=O)[O-])cc1[N+](=O)[O-])c1ccc(C)cc1: 95 % of control
- Cc1[nH]c2cc(Br)c(Br)cc2c1/C=N/NC(N)=S: 92 % of control
- CS(=O)(=O)OC1COCC1OS(C)(=O)=O (configuration not stated): 95 % of control
- COC(=O)CN(CC(=O)OC)C1CC1N(CC(=O)OC)CC(=O)OC (configuration not stated): 102 % of control
- c1ccc(SCc2ccc3c(c2)OCO3)cc1: 102 % of control
- CN(C)c1c(-c2ccccc2)nnc(-c2ccccc2)c1-c1ccccc1: 100 % of control
- O=C1C(c2ccccc2)=C(c2ccccc2)/C1=C/c1ccc(Cl)cc1: 105 % of control
- CN1CCN(C(=S)C(O)(c2ccccc2)c2ccccc2)CC1: 105 % of control
- CCOC(=O)C(C(=O)OCC)n1c(=O)c2c(ncn2C)n(C)c1=O: 101 % of control
- Cc1ccc(S(=O)(=O)N2CC3CNC(=O)C(C3)C2)cc1 (configuration not stated): 101 % of control
- CC(C)(C)C#CP(=O)(C#CC(C)(C)C)C#CC(C)(C)C: 95 % of control
- Cc1ccc(S(=O)(=O)Oc2ccc3c(/C=C/[N+](=O)[O-])cn(C)c3c2)cc1: 101 % of control
- CCCCn1c(C)nc2c(N)cc(C(F)(F)F)cc21: 114 % of control
- c1ccc(-c2ccc(-c3cn4c(n3)SCC4)cc2)cc1: 91 % of control
- COSc1ccccc1: 90 % of control
- CC1=CC(=O)C(Cc2ccccc2)(c2ccc(O)cc2O)N1 (configuration not stated): 97 % of control

###

tested on: P388 leukemia ip, CD2F1 mice, survival T/C; assay: NCI In Vivo Anticancer Drug Screen. Data for tumor model P388 Leukemia (intraperitoneal) in CD2F1 (CDF1) mice; conditions: endpoint: median survival time; dose: 200.0 mg/kg/injection; schedule: Q01DX005 (ip); vehicle: saline with Tween-80; higher = longer survival
Inconclusive results and toxic doses are left out.
reportedEndpoint: T/C

• O=C1CSC(c2ccccc2O)N1c1nncs1 (stereo not drawn) = 93 % of control
• NCCNc1ncnc2ccc(Cl)cc12 = 92 % of control
• O=C(c1ccccc1)c1nn(-c2ccccc2)c(=O)cc1-c1ccccc1 = 100 % of control
• CCCC1OC1(CC)COC(=O)NC (stereo not drawn) = 117 % of control
• O=C(OCC(OC(=O)c1ccccc1)C(OC(=O)c1ccccc1)C(OC(=O)c1ccccc1)c1nn[nH]n1)c1ccccc1 (stereo not drawn) = 95 % of control
• CC(C)CCCC(C)C1CCC2C3CCC4CC5(C)C(CC4(C)C3CCC12C)C(=O)C5(Cl)Cl (stereo not drawn) = 99 % of control
• CCOC(=O)[C@H]1CC[C@@H](C(=O)OCC)N1Sc1ccc([N+](=O)[O-])cc1[N+](=O)[O-] = 102 % of control
• Cc1ccc2c(c1)C(=O)c1c(ccc3ccccc13)C2=O = 104 % of control

###

Listing of recorded T/C by entry.
system: P388 leukemia ip, CD2F1 mice, survival T/C; test: NCI In Vivo Anticancer Drug Screen. Data for tumor model P388 Leukemia (intraperitoneal) in CD2F1 (CDF1) mice; settings: endpoint: median survival time; dose: 50.0 mg/kg/injection; schedule: Q01DX005 (ip); vehicle: saline with Tween-80; higher = longer survival
Toxic doses and inconclusive results are not listed.
reportedEndpoint: T/C

- COc1ccc(C2CC(C)(N3CCCC3)Oc3cc4c(cc32)OCO4)c(OC)c1 (configuration not stated): 99 % of control
- OCC1(C(O)(C2CC2)C2(CO)CC2)CC1: 105 % of control
- CCn1c2ccccc2c2cc(N=Nc3ccc(N)nc3N)ccc21: 94 % of control
- CC(=O)C[n+]1cccc(S)c1-c1ccccc1: 97 % of control
- CN(C)CCC(=O)Nc1nc(-c2ccc(Cl)cc2)cs1: 102 % of control
- Cc1c(C)c2ccc3occc(=O)c3c2oc1=O: 102 % of control
- O=C(N/N=C\c1c(O)ccc2ccccc12)c1ccncc1: 104 % of control
- CC(C)=CC(C(=O)C1CC1)C(CC(=O)C1CC1)C(C)C (configuration not stated): 92 % of control
- CCN(CC)CCOCc1ccc2c(c1)OCO2: 113 % of control
- CCN(CC)CCOC(=O)c1ccc(N)c2ccccc12: 103 % of control
- CC(C)N(Cc1ccccc1)S(=O)(=O)c1n[nH]c(C(C)(C)C)n1: 94 % of control
- Oc1c(Cl)c(Cl)c2ncccc2c1Cl: 102 % of control

###

Listing of recorded T/C by entry.
tested on: P388 leukemia ip, CD2F1 mice, survival T/C; test: NCI In Vivo Anticancer Drug Screen. Data for tumor model P388 Leukemia (intraperitoneal) in CD2F1 (CDF1) mice; conditions: endpoint: median survival time; dose: 200.0 mg/kg/injection; schedule: Q01DX009 (ip); vehicle: suspension in saline; higher = longer survival
Toxic doses and inconclusive results are not listed.
reportedEndpoint: T/C

* Cc1cc2cc(N)ccc2[se]1 | 101 % of control
* FC(F)(F)c1ccccc1NC(=S)SCc1ccc(Cl)cc1 | 108 % of control
* COc1ccc(CSC(=S)Nc2cc(C)c(C)cc2[N+](=O)[O-])cc1 | 97 % of control
* O=[N+]([O-])c1cc(NC(=S)SCc2ccc(Cl)cc2)ccc1Cl | 121 % of control

###

Listing of recorded T/C by entry.
Test system: P388 leukemia ip, CD2F1 mice, survival T/C
Assay: NCI In Vivo Anticancer Drug Screen. Data for tumor model P388 Leukemia (intraperitoneal) in CD2F1 (CDF1) mice
Settings: endpoint: median survival time; dose: 100.0 mg/kg/injection; schedule: Q04DX003 (ip); vehicle: saline; higher = longer survival
Procedure: The antitumor activity of compounds was measured in mice bearing transplantable tumors. Survival or tumor size were measured and the results are expressed as the measurement made in the treated group (T) divided by the measurement made in the vehicle treated control group (C). The tumor model used in this assay is P388 Leukemia (intraperitoneal) in CD2F1 (CDF1) mice
Toxic doses and inconclusive results are not listed.
reportedEndpoint: T/C

• O=C(O)Cc1sc(=O)[nH]c1O = 100 % of control
• O=C1c2ccc(Cl)cc2OCCC1CN1CCCCC1 (configuration not stated) = 100 % of control
• CC(C)OC(=O)C1(N)CCCC1 = 95 % of control
• CC1C(=O)C(C)C(c2ccccc2)OC1c1ccccc1 (configuration not stated) = 100 % of control
• CC(C)CNC12CN3CN(CN(C3)C1)C2 = 98 % of control
• CC(C)(O)Cn1ccccc1=O = 98 % of control
• Cc1nn(C(=O)c2ccncc2)c(C)c1N=Nc1cccc([N+](=O)[O-])c1 = 89 % of control
• CCOC(=O)c1cn2ccccc2c(C(=O)c2cccnc2)c1=N = 91 % of control
• CCOC(=O)Nc1nc2ccc(C(=O)OCC)cc2[nH]1 = 108 % of control
• O=C(O)CCN(Cc1ccccc1)Cc1ccccc1 = 100 % of control
• BrC1CCCCC(Br)C12OCCO2 (configuration not stated) = 107 % of control
• COc1cccc2c1C(=O)c1c(O)c3c(c(O)c1C2=O)CC(O)(C(O)CO)CC3OC1CC(N2CCSCC2)C(O)C(C)O1 (configuration not stated) = 122 % of control
• O=C(O)c1ccc(COc2ccc([N+](=O)[O-])cc2Cl)cc1 = 100 % of control
• CC(=O)NC1=C(C#N)CCCC1 = 101 % of control
• O=C1c2ccccc2-c2nc3cncnc3nc21 (tested in a mixture with another compound) = 109 % of control
• COc1cc2c(cc1OC)C(=O)C(=C1C=CN(C)C=C1)N=C2 = 101 % of control
• CNCC(CO)C(C)(C)C (configuration not stated) = 101 % of control
